- TEST_TARGET: Recombinant human KIF18A (1-467 His-tagged) (Homo sapiens)
- Construct: Recombinant human KIF18A (1-467 His-tagged) protein; His
- Sequence (Q8NI77 1-467): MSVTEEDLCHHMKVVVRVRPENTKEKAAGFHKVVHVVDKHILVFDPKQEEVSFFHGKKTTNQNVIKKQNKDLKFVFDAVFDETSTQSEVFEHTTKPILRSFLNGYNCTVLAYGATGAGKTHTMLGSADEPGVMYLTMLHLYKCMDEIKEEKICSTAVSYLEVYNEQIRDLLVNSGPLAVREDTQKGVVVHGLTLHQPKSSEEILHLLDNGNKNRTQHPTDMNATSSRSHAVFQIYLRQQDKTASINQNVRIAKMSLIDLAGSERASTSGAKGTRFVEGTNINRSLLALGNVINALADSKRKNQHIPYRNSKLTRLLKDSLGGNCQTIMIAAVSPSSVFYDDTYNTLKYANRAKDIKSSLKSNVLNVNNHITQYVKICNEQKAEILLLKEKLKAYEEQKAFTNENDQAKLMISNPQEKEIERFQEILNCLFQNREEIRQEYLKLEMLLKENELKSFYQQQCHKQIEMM
- Sequence (P02550 whole entry partner): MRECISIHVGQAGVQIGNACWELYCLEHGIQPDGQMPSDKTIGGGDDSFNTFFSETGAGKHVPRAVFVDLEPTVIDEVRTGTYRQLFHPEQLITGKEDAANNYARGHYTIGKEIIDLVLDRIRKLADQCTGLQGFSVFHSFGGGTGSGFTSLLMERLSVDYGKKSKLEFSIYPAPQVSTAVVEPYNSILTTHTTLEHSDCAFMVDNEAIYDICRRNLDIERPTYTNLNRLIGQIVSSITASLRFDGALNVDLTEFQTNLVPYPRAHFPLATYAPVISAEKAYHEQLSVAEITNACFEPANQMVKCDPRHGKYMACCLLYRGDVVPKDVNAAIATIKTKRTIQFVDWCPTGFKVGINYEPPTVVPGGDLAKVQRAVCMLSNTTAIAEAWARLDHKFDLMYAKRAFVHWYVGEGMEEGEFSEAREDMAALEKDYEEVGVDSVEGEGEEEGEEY
- Sequence (P02554 whole entry partner): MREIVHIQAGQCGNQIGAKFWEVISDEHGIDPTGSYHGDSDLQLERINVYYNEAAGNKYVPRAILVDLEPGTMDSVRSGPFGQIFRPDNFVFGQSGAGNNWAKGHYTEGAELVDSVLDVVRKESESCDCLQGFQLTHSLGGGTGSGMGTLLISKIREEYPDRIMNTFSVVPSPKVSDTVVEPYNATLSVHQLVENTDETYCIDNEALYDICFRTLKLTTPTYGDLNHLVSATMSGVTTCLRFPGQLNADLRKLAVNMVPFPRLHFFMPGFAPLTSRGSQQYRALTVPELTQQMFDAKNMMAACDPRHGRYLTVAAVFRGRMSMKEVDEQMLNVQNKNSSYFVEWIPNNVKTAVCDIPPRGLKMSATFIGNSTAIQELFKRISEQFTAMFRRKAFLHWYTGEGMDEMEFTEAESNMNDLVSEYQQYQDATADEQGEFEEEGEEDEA
- ASSAY_METHOD_TEXT: KIF18A Enzyme Assay: microtubule-stimulated ATPase activity (ADP-Glo)
- Assay type: biochemical
- CONDITION_LABEL: 30 nM KIF18A, 30 μg/mL pig microtubules, ATP 75 μM (Km), ADP-Glo luminescence
EXPERIMENTAL_ENDPOINT: IC50 (nM)
Write down the numeric answer in nM and omit the unit.

See these solved cases before continuing.
COMPOUND: C[C@@H]1CN(c2cccc(NC(=O)c3ccc(S(=N)(=O)C4CC4)cc3N3CCC4(CC3)CC4)n2)CCO1 (single isomer, unassigned) [Example 12-1]
TEST_TARGET: Recombinant human KIF18A (1-467 His-tagged) (Homo sapiens)
MEASUREMENT_UNITS: nM
DATA_VALUE: 85

COMPOUND: Cc1cc(NC(=O)c2ccc(NS(=O)(=O)CCO)cc2N2CCC3(CC2)CC3)nc(N2CCOCC2)c1
TEST_TARGET: Recombinant human KIF18A (1-467 His-tagged) (Homo sapiens)
MEASUREMENT_UNITS: nM
DATA_VALUE: 17

COMPOUND: C[C@@H]1CN(c2cccc(NC(=O)c3ccc(NS(=O)(=O)CCC(F)(F)F)cc3N3CCC4(CC3)CC4)n2)CCO1
TEST_TARGET: Recombinant human KIF18A (1-467 His-tagged) (Homo sapiens)
MEASUREMENT_UNITS: nM
DATA_VALUE: 343

COMPOUND: Cc1cc(NC(=O)c2ccc(NS(=O)(=O)C3(C)CC3)cc2N2CCC3(CC2)CC3)nc(N2CC(F)(F)C2)c1
TEST_TARGET: Recombinant human KIF18A (1-467 His-tagged) (Homo sapiens)
MEASUREMENT_UNITS: nM
DATA_VALUE: 103

COMPOUND: C[C@@H](CO)S(=O)(=O)Nc1ccc(C(=O)Nc2cccc(N3CC(F)(F)C3)n2)c(N2CCC3(CC2)CC3)c1 (single isomer, unassigned)
TEST_TARGET: Recombinant human KIF18A (1-467 His-tagged) (Homo sapiens)
MEASUREMENT_UNITS: nM
DATA_VALUE: 68

Now examine the next entry.
Query string: Missing value: IC50, Recombinant human KIF18A (1-467 His-tagged) (Homo sapiens), entry CC(C)(C)c1cccc(NC(=O)c2ccc(S(C)(=O)=O)cc2N2CCC3(CC2)CC3)n1 . Fill in?
Result string: 166

====

- TEST_TARGET: Recombinant human KIF18A (1-467 His-tagged) (Homo sapiens)
- Construct: Recombinant human KIF18A (1-467 His-tagged) protein; His
- ASSAY_METHOD_TEXT: KIF18A Enzyme Assay: microtubule-stimulated ATPase activity (ADP-Glo)
- Assay type: biochemical
- CONDITION_LABEL: 30 nM KIF18A, 30 μg/mL pig microtubules, ATP 75 μM (Km), ADP-Glo luminescence
Entries and their IC50 values follow.
Write down the numeric answer in nM and omit the unit.

See these solved cases before continuing.
MOLECULE: C[C@@H]1CN(c2cccc(NC(=O)c3ccc(S(=O)(=O)N4CCC4)cc3N3CCC4(CC3)CC4)n2)CCO1
IC50 / nM: 67
//
MOLECULE: CC(C)S(=O)(=O)c1ccc(C(=O)Nc2cccc(N3CCO[C@H](C)C3)n2)c(N2CCC3(CC2)CC3)c1
IC50 / nM: 34
//
MOLECULE: C[C@H](CO)S(=O)(=O)Nc1ccc(C(=O)Nc2cccc(N3CC(F)(F)C3)n2)c(N2CCC3(CC2)CC3)c1 (single isomer, unassigned)
IC50 / nM: 25
//
MOLECULE: Cc1cc(NC(=O)c2ccc(NS(=O)(=O)C3COC3)cc2N2CCC3(CC2)CC3)nc(N2CC(F)(F)C2)c1
IC50 / nM: 25

Query string: // IC50 lookup, key: C[C@@H]1CN(c2cc(C#N)cc(NC(=O)c3ccc(NS(=O)(=O)CCO)cc3N3CCC4(CC3)CC4)n2)CCO1
Result string: 41

Query string: // IC50 lookup, key: C[C@H](CO)S(=O)(=O)Nc1ccc(C(=O)Nc2cccc(N3CCC(F)(F)CC3)n2)c(N2CCC3(CC2)CC3)c1 (single isomer, unassigned)
Result string: 37

Query string: // IC50 lookup, key: C[C@@H]1CN(c2cccc(NC(=O)c3ccc(S(=N)(=O)C4CC4)cc3N3CCC4(CC3)CC4)n2)CCO1 (single isomer, unassigned) [Example 12-2]
Result string: 43

Query string: // IC50 lookup, key: C[C@@H]1CN(c2cccc(NC(=O)c3ccc(NS(=O)(=O)CC(C)(C)O)cc3N3CCC4(CC3)CC4)n2)CCO1
Result string: 111

Query string: // IC50 lookup, key: CS(=O)(=O)Cc1ccc(C(=O)Nc2cccc(N3CCC[C@@H](O)C3)n2)c(N2CCC3(CC2)CC3)c1
Result string: 94

Query string: // IC50 lookup, key: C[C@@H]1CN(c2cccc(NC(=O)c3ccc(S(=O)(=O)NC4(C)COC4)cc3N3CCC4(CC3)CC4)n2)CCO1
Result string: 43

Query string: // IC50 lookup, key: Cc1cc(NC(=O)c2ccc(NS(=O)(=O)[C@@H](C)CO)cc2N2CCC3(CC2)CC3)nc(N2CCOCC2)c1 (single isomer, unassigned)
Result string: 18

Query string: // IC50 lookup, key: Cc1cc(NC(=O)c2ccc(NS(=O)(=O)CCO)cc2N2CCC3(CC2)CC3)nc(C2CC(F)(F)C2)c1
Result string: 45

Query string: // IC50 lookup, key: CC1(S(=O)(=O)Nc2ccc(C(=O)Nc3cccc(N4CCC[C@H](CO)C4)n3)c(N3CCC4(CC3)CC4)c2)CC1
Result string: 65

Query string: // IC50 lookup, key: CC(C)(O)CCOc1cccc(NC(=O)c2ccc(NS(=O)(=O)CCO)cc2N2CCC3(CC2)CC3)n1
Result string: 84

Query string: // IC50 lookup, key: CC1(S(=O)(=O)Nc2ccc(C(=O)Nc3cccc(N4CCO[C@H](CO)C4)n3)c(N3CCC4(CC3)CC4)c2)CC1
Result string: 81

Query string: // IC50 lookup, key: C[C@@H]1CN(c2cccc(NC(=O)c3ccc(S(=O)(=O)C(C)(C)CO)cc3N3CCC4(CC3)CC4)n2)CCO1
Result string: 51

Query string: // IC50 lookup, key: CC(C)(C)NS(=O)(=O)c1cccc(NC(=O)c2ccc(NS(C)(=O)=O)cc2N2CCC3(CC2)CC3)n1
Result string: 55

Query string: // IC50 lookup, key: CC1(S(=O)(=O)Nc2ccc(C(=O)Nc3cccc(N4CC(F)C4)n3)c(N3CCC4(CC3)CC4)c2)CC1
Result string: 58

Query string: // IC50 lookup, key: Cc1cc(NC(=O)c2ccc([S@](=N)(=O)C3CC3)cc2N2CCC3(CC2)CC3)nc(N2CCC(F)(F)CC2)c1 (single isomer, unassigned)
Result string: 81

Query string: // IC50 lookup, key: C[C@@H]1CN(c2cccc(NC(=O)c3ccc(NS(=O)(=O)CCF)cc3N3CCC4(CC3)CC4)n2)CCO1
Result string: 24

Query string: // IC50 lookup, key: CC1(S(=O)(=O)Nc2ccc(C(=O)Nc3cccc(N4CCO[C@@H](CO)C4)n3)c(N3CCC4(CC3)CC4)c2)CC1
Result string: 73
